measurement-target: recombinant human secretory phospholipase A2 (Homo sapiens, UniProt P14555)
Sequence (P14555 21-144): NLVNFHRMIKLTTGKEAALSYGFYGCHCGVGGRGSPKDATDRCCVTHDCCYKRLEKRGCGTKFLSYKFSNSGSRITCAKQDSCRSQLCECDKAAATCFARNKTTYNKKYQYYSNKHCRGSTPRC
measurement-protocol: Inhibition Test of Human Secretory Phospholipase A2 (chromogenic assay)
test-conditions: sPLA2 50 ng/well, 40° C., 30 minutes, OD 405 nm, 96 well microtiterplate
pIC50: −log10 of the molar value.
quantity-kind: pIC50

>>> quantitative_result("CCc1c(C(=O)C(N)=O)c2c(OCC(=O)OC)nc(C)cn2c1Cc1ccccc1C(=O)c1ccccc1 [Compound I-71]")
6.05
>>> quantitative_result("CCc1c(C(=O)C(N)=O)c2c(OCC(=O)OC)nc(C)cn2c1Cc1ccc(F)cc1F [Compound I-31]")
5.93
>>> quantitative_result("CCc1c(C(=O)C(N)=O)c2c(OCC(=O)O)nc(C)cn2c1CC1CCCC1 [Compound I-24]")
7.77
>>> quantitative_result("CCc1c(C(=O)C(N)=O)c2c(OCC(=O)OC)nc(C)cn2c1Cc1ccccc1F [Compound I-25]")
6.71

---

measurement-target: recombinant human secretory phospholipase A2 (Homo sapiens, UniProt P14555)
Sequence (P14555 21-144): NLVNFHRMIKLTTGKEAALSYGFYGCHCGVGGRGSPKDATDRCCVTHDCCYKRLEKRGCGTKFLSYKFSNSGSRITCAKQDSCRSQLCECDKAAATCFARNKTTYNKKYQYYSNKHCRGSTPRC
measurement-protocol: Inhibition Test of Human Secretory Phospholipase A2 (chromogenic assay)
test-conditions: sPLA2 50 ng/well, 40° C., 30 minutes, OD 405 nm, 96 well microtiterplate
quantity-kind: IC50 (nM)

>>> quantitative_result("CCc1c(C(=O)C(N)=O)c2c(OCC(=O)O)nccn2c1Cc1cccs1")
9
>>> quantitative_result("CCOC(=O)COc1nc(C)cn2c(Cc3ccccc3-c3ccsc3)c(CC)c(C(=O)C(N)=O)c12")
76
>>> quantitative_result("CCCCCOC(=O)COc1nc(C)cn2c(Cc3ccc(F)cc3)c(CC)c(C(=O)C(N)=O)c12")
650
>>> quantitative_result("CCc1c(C(=O)C(N)=O)c2c(SCC(=O)O)nc(C)cn2c1Cc1ccccc1-c1ccc(F)cc1")
25
>>> quantitative_result("NC(=O)C(=O)c1c(C2CC2)c(Cc2ccccc2)n2ccnc(OCC(=O)O)c12")
35
>>> quantitative_result("CCc1c(C(=O)C(N)=O)c2c(OCC(=O)OC)nccn2c1Cc1cccs1")
314
>>> quantitative_result("CCc1c(C(=O)C(N)=O)c2c(OCC(=O)OC)nc(-c3ccccc3)cn2c1Cc1ccccc1")
41
>>> quantitative_result("CCc1c(C(=O)C(N)=O)c2c(OCC(=O)O)nc(C)cn2c1Cc1ccccc1-c1ccc(OC)cc1")
8
>>> quantitative_result("CCc1c(C(=O)C(N)=O)c2c(OCC(=O)OC)nc(Cc3ccccc3)cn2c1Cc1ccccc1")
211
>>> quantitative_result("CCc1c(C(=O)C(N)=O)c2c(OCC(=O)OC)nccn2c1Cc1cccc(OC)c1")
435
>>> quantitative_result("CCc1c(C(=O)C(N)=O)c2c(OCC(=O)O)nc(C)cn2c1Cc1ccccc1-c1ccccc1")
8
>>> quantitative_result("CCc1c(C(=O)C(N)=O)c2c(OCC(=O)OC)nc(C)cn2c1Cc1csc2ccccc12")
129
>>> quantitative_result("CCc1c(C(=O)C(N)=O)c2c(OCC(=O)O)nc(C)cn2c1Cc1ccc(C)s1")
11
>>> quantitative_result("CCc1c(C(=O)C(N)=O)c2c(OCC(=O)O)nc(C(C)C)cn2c1Cc1ccccc1")
12
>>> quantitative_result("CCc1c(C(=O)C(N)=O)c2c(OCC(=O)O)nc(C)cn2c1Cc1ccc(F)cc1")
21
>>> quantitative_result("CCc1cn2c(Cc3ccccc3)c(CC)c(C(=O)C(N)=O)c2c(OCC(=O)O)n1")
10

---

# IC50 annotations
measurement-target: recombinant human secretory phospholipase A2 (Homo sapiens)
Sequence (P14555 21-144): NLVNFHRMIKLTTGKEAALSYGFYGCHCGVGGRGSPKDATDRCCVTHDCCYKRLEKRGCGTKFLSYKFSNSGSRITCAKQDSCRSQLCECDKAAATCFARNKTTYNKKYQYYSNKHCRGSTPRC
measurement-protocol: Inhibition Test of Human Secretory Phospholipase A2 (chromogenic assay)
test-conditions: sPLA2 50 ng/well, 40° C., 30 minutes, OD 405 nm, 96 well microtiterplate
quantity-kind: IC50 (µM)

>>> quantitative_result("CCc1c(C(=O)C(N)=O)c2c(OCC(=O)OCCN3CCOCC3)nc(C)cn2c1Cc1ccccc1-c1cccs1")
0.078
>>> quantitative_result("CCc1c(C(=O)C(N)=O)c2c(OCC(=O)O)nc(C)cn2c1Cc1ccccc1C#Cc1ccccc1")
0.006
>>> quantitative_result("CCc1c(C(=O)C(N)=O)c2c(OCC(=O)OC)nc(C)cn2c1Cc1ccccc1-c1cccs1")
0.061
>>> quantitative_result("COC(=O)COc1nc(C)cn2c(Cc3ccccc3)c(C)c(C(=O)C(N)=O)c12")
0.116

---

quantity-kind: melting point

>>> result("CCc1c(C(=O)C(N)=O)c2c(OCC(=O)OC)nccn2c1Cc1ccc2ccsc2c1")
"144 to 148 °C"
>>> result("CCc1c(C(=O)C(N)=O)c2c(OCC(=O)OC)nc(C)cn2c1Cc1ccccc1CCc1ccccc1")
"215 to 217 °C"
>>> result("CCOC(=O)COc1nc(C)cn2c(Cc3ccc(F)cc3)c(CC)c(C(=O)C(N)=O)c12")
"184 to 186 °C"
>>> result("CCc1c(C(=O)C(N)=O)c2c(OCC(=O)OC)nc(C)cn2c1Cc1ccccc1Oc1ccccc1")
"161 to 163 °C"
>>> result("CCc1c(C(=O)C(N)=O)c2c(OCC(=O)OC)nc(C)cn2c1Cc1ccc(OC)cc1")
"189 to 190 °C"
>>> result("CCc1c(C(=O)C(N)=O)c2c(OCC(=O)OC)nc(C)cn2c1Cc1ccccc1-c1ccc(C)cc1")
"167.5 to 169.5 °C"
>>> result("CCc1c(C(=O)C(N)=O)c2c(OCC(=O)O)nccn2c1CC1CCCCC1")
"205 to 206 °C"
>>> result("CCc1c(C(=O)C(N)=O)c2c(OCC(=O)O)nc(C)cn2c1Cc1ccccc1CCc1ccccc1")
"189 to 191 °C"
>>> result("CCc1c(C(=O)C(N)=O)c2c(OCC(=O)OC)nc(C)cn2c1Cc1ccccc1")
"192 to 194 °C"
>>> result("CCc1c(C(=O)C(N)=O)c2c(OCC(=O)O)nccn2c1CC1CCCC1")
"203 to 205 °C"
>>> result("CCc1c(C(=O)C(N)=O)c2c(OCC(=O)OC)nc(C)cn2c1Cc1ccccc1-c1cccs1")
"134.5 to 136 °C"
>>> result("CCc1c(C(=O)C(N)=O)c2c(OCC(=O)OC)nc(C)cn2c1Cc1ccccc1C#Cc1ccccc1")
"147 to 149 °C"
>>> result("CCc1c(C(=O)C(N)=O)c2c(OCC(=O)OC)nccn2c1Cc1cccc(OC)c1")
"154 to 155 °C"
>>> result("CCc1c(C(=O)C(N)=O)c2c(OCC(=O)O)nc(C)cn2c1Cc1ccccc1Oc1ccccc1")
"208 to 210 °C"
>>> result("CCc1c(C(=O)C(N)=O)c2c(OCC(=O)OC)nc(C)cn2c1Cc1csc2ccccc12")
"186 to 187 °C"
>>> result("CCc1c(C(=O)C(N)=O)c2c(OCC(=O)OC)nc(C)cn2c1Cc1ccccc1F")
"187 to 188 °C"

---

measurement-target: recombinant human secretory phospholipase A2 (Homo sapiens)
measurement-protocol: Inhibition Test of Human Secretory Phospholipase A2 (chromogenic assay)
test-conditions: sPLA2 50 ng/well, 40° C., 30 minutes, OD 405 nm, 96 well microtiterplate
Experimental: Test Example: Inhibition Test of Human Secretory Phospholipase A2 In order to identify and evaluate an inhibitor of recombinant human secretory phospholipase A2, the following chromogenic assay is utilized. The assay herein has been applied for high volume screening wherein 96 well microtiterplate is used. […] 5) Changes in absorbancy for 30 minutes are measured by a plate reader, and inhibition activity was calculated (OD: 405 nm). […]
quantity-kind: IC50 (nM)

>>> quantitative_result("CCc1c(C(=O)C(N)=O)c2c(OCC(=O)O)nc(CC(C)C)cn2c1Cc1ccccc1 [Compound I-46]")
10
>>> quantitative_result("CCc1c(C(=O)C(N)=O)c2c(OCC(=O)O)nc(CO)cn2c1Cc1ccccc1 [Compound I-38]")
33
>>> quantitative_result("CCc1c(C(=O)C(N)=O)c2c(OCC(=O)O)nc(C)cn2c1Cc1cccc(-c2ccc(C)s2)c1 [Compound I-64]")
6
>>> quantitative_result("CCc1c(C(=O)C(N)=O)c2c(OCC(=O)O)nc(C)cn2c1Cc1ccc(OC)cc1 [Compound I-34]")
26
>>> quantitative_result("CCc1c(C(=O)C(N)=O)c2c(OCC(=O)OC)nc(C)cn2c1Cc1cccc(-c2ccc(C)s2)c1 [Compound I-63]")
57
>>> quantitative_result("CCc1c(C(=O)C(N)=O)c2c(OCC(=O)OC)nc(C)cn2c1Cc1ccccc1-c1ccc(F)cc1 [Compound I-29]")
56
>>> quantitative_result("CCc1c(C(=O)C(N)=O)c2c(OCC(=O)O)nc(C)cn2c1Cc1ccccc1C(=O)c1ccccc1 [Compound I-72]")
13
>>> quantitative_result("CCc1c(C(=O)C(N)=O)c2c(OCC(=O)OC)nc(C)cn2c1Cc1ccc(OC)cc1 [Compound I-33]")
703
>>> quantitative_result("CCc1c(C(=O)C(N)=O)c2c(OCC(=O)OC)nc(CC(C)C)cn2c1Cc1ccccc1 [Compound I-45]")
117
>>> quantitative_result("CCOC(=O)COc1nc(C)cn2c(Cc3ccccc3-c3ccc(F)cc3)c(CC)c(C(=O)C(N)=O)c12 [Compound I-90]")
38
>>> quantitative_result("Cc1cn2c(Cc3ccc(F)cc3)c(C)nc(OCC(=O)O)c2c1C(=O)C(N)=O [Compound I-60]")
1210
>>> quantitative_result("CCc1c(C(=O)C(N)=O)c2c(OCC(=O)OC)nc(C)cn2c1Cc1ccccc1Oc1ccccc1 [Compound I-55]")
32
>>> quantitative_result("CCc1c(C(=O)C(N)=O)c2c(OCC(=O)O)nc(C3CCCCC3)cn2c1Cc1ccccc1-c1ccccc1 [Compound I-82]")
5
>>> quantitative_result("CCc1c(C(=O)C(N)=O)c2c(OCC(=O)O)nc(C)cn2c1Cc1ccccc1-c1ccc(F)cc1 [Compound I-30]")
8
>>> quantitative_result("CCc1c(C(=O)C(N)=O)c2c(OCC(=O)O)nc(Cc3ccccc3)cn2c1Cc1ccccc1 [Compound I-50]")
17
